Test system: mitochondrial ribosome (human chimeric)
Format: biochemical
Conditions: mitochondrial; Table 3 (Example 2); read-out: IC50 Mit
Hi there, I'd appreciate the recorded pIC50 for every entry that follows.
// field semantics: pIC50 = negative decimal log of concentration (mol/L)

Reported pIC50, compound CC1CC(O)C2O[C@H](O[C@@H]3C(N)C[C@@H](N)C(O)[C@H]3O[C@@H]3O[C@H](CO)[C@H](O[C@H]4O[C@@H](CN)[C@@H](O)C(O)C4N)C3O)C(N)[C@@H](O)[C@@H]2O1 (stereo partly shown) [Compound 125] : ____
3.51

Cool, now CC1CC(O)C2O[C@H](O[C@@H]3C(N)C[C@@H](N)C(O)[C@H]3O[C@@H]3O[C@H](CO)[C@H](O[C@H]4O[C@@H](CN)[C@@H](O)C(O)C4N)C3O)C(N)[C@@H](O)[C@@H]2O1 (stereo partly shown) [Compound 109]
3.71

Cool, now NC[C@@H]1O[C@H](O[C@H]2[C@@H](O)[C@H](O[C@@H]3[C@@H](O)[C@H](N)C[C@H](N)[C@H]3O[C@H]3O[C@H](CO)[C@@H](O)[C@H](O)[C@H]3N)O[C@@H]2CO)[C@H](N)[C@@H](O)[C@@H]1O [paromomycin, reference compound]
3.85

Cool, now NC[C@@H]1O[C@H](O[C@@H]2C(O)[C@H](O[C@@H]3C(O)[C@H](N)CC(N)[C@H]3O[C@H]3OC4C(O)CCCO[C@H]4[C@H](O)C3N)O[C@@H]2CO)C(N)C(O)[C@@H]1O (stereo partly shown) [DC-196]
6.85
